Where do the numbers come from? From ChEMBL document CHEMBL1201862.

test system: NCI-H23; assay: NCI tumour cell line growth inhibition, 48 h
Calls of active or inactive are those of the source. Rule as the data show it: active = GI50 up to about 1.1 µM and inactive = higher.
Possible outcomes: 1 = active, 0 = inactive

[[record]]
compound = "CCN(c1n[n+]2c(-c3ccccc3)csc2s1)c1n[n+]2c(-c3ccccc3)csc2s1"
label_value = 0

[[record]]
compound = "Cn1nc(-c2ccccc2)c(C(=O)/C=C/c2ccc(Cl)cc2)c(N2CCCCC2)c1=O"
label_value = 0

[[record]]
compound = "Cc1c(NC(=O)Nc2c(Cl)cccc2Cl)c(=O)n(-c2ccccc2)n1C"
label_value = 0

[[record]]
compound = "CC1=NN(C(=O)c2ccccc2O)C(=O)/C1=C/c1ccc(O)cc1"
label_value = 1

[[record]]
compound = "Oc1c(C2=NNC(c3ccc(Cl)cc3Cl)C2)ccc2ccccc12 (stereo unspecified)"
label_value = 0

[[record]]
compound = "O=c1s[s+]([O-])c2ccccc12 (stereo unspecified)"
label_value = 0

[[record]]
compound = "Cn1c2ccccc2c2ccc3c(c21)C(=O)C(c1ccccc1)=CC3=O"
label_value = 0

[[record]]
compound = "CC1NOC(=O)C1/N=N/c1ccccc1Br (stereo unspecified)"
label_value = 0

[[record]]
compound = "Cc1nc(N)nc2ccccc12"
label_value = 0

[[record]]
compound = "CCN(CC)CSc1nc2ccccc2[nH]1"
label_value = 0

[[record]]
compound = "CC(C)(C)c1ccc(O)c(CN(Cc2cc(C(C)(C)C)ccc2O)C2CCCCC2)c1"
label_value = 0


###

In this section, each of the compounds is paired with its reported GI50.
system: TK-10; assay: NCI tumour cell line growth inhibition, 48 h
The source made the active and inactive calls. No stated cut-off is given here; in the data, active = GI50 up to about 1.1 µM and inactive = higher.
Property: GI50

[[record]]
compound = "C=C1C(=O)O[C@H]2[C@H]3O[C@@H](C[C@@H]12)[C@](C)(O)CCCC(C)=CCC[C@H]3C"
test_result = "3.24 µM (inactive)"

[[record]]
compound = "COC(=O)N1C=Cc2c(c(C)c3c([nH]c4ccccc43)c2C)C1C (stereo not drawn)"
test_result = "19.6 µM (inactive)"

[[record]]
compound = "CCOP(=O)(/C=C/n1ccc(=O)[nH]c1=O)OCC"
test_result = "> 100 µM (inactive)"


###

In this section, each of the molecules is paired with its reported GI50.
tested on: Malme-3M; test: NCI tumour cell line growth inhibition, 48 h
Active and inactive are the calls of the source. No stated cut-off is given here; in the data, active = GI50 up to about 1.1 µM and inactive = higher.
Property: GI50

[[record]]
molecule = "O=C(CCl)N1CCCCC1C1(c2cc3ccccc3[nH]2)OCCO1 (stereo unspecified)"
test_result = "4.47 µM (inactive)"

[[record]]
molecule = "O=C(CC1(O)C(=O)Nc2c(Cl)cc(Cl)cc21)c1ccco1 (stereo unspecified)"
test_result = "> 100 µM (inactive)"

[[record]]
molecule = "N#CCCN(CCC#N)c1ccc(/C=C2\\N=C(c3ccccc3)N(c3ccc(F)cc3)C2=O)cc1"
test_result = "> 100 µM (inactive)"

[[record]]
molecule = "CC1(C)CC(O)CC(C)(C)N1O [TEMPOL HYDROXYLAMINE]"
test_result = "> 100 µM (inactive)"

[[record]]
molecule = "O=C1OC(=O)c2c1cc1cc3c(cc1c2-c1ccc2c(c1)OCO2)OCO3"
test_result = "> 100 µM (inactive)"

[[record]]
molecule = "CC1(C)OC[C@@H]([C@H](O)C2C=CC(=O)S2)O1 (stereo partly specified)"
test_result = "18.1 µM (inactive)"

